These data points were gathered from PubChem BioAssay AID1053172.

Biological target: HIV-1 integrase / human LEDGF/p75 complex
Assay: blockers of LEDGF/p75-dependent integrase activity – biochemical, TR-FRET, dose response (AID 1053172); call rule not given here
Settings: TR-FRET integrase-LEDGF/p75 DNA integration
// allowed return values: true (1) (active), false (0) (inactive)

stdin: Test call for this molecule, please: `COC(=O)C1CCN(C(=O)c2cc(-c3ccco3)nc3ccccc23)CC1`
stdout: true (1)

stdin: Test call for this molecule, please: `CC(=O)c1ccc(NC(=O)CSc2nnc(-c3ccco3)c(-c3ccco3)n2)cc1`
stdout: true (1)

stdin: Test call for this molecule, please: `O=C1NC(=Nc2ccccc2)S/C1=C\C=C\c1ccco1`
stdout: true (1)

====

Target: HIV-1 integrase / human LEDGF/p75 complex
Experiment: blockers of LEDGF/p75-dependent integrase activity – biochemical, TR-FRET, dose response (AID 1053172)
Conditions: TR-FRET integrase-LEDGF/p75 DNA integration
The source made the active and inactive calls. No rule for the calls is given here.
// allowed return values: t for active, f for inactive

Below, 3 molecules whose answers are already recorded.
molecule	target-system	qualitative-label
CC(=O)c1ccc2c(c1)C1C=CCC1C(C(=O)O)N2 (stereo unspecified)	HIV-1 integrase / human LEDGF/p75 complex	t
O=C(O)c1cccc2cccc(-c3c4ccc(=O)c(O)c-4oc4c(O)c(O)ccc34)c12	HIV-1 integrase / human LEDGF/p75 complex	t
O=c1c(OC2OC(CO)C(O)C(O)C2OC2OC(CO)C(O)C(O)C2O)c(-c2ccc(O)cc2)oc2cc(O)cc(O)c12 (stereo unspecified)	HIV-1 integrase / human LEDGF/p75 complex	t

stdin: Test call for this molecule, please: `NC(=S)NN=Cc1nccc2c(N)cccc12`
stdout: f

stdin: Test call for this molecule, please: `COc1cc(/C=C(\C#N)C(=O)c2ccc(O)c(O)c2)cc(I)c1O`
stdout: t

====

Molecular target: HIV-1 integrase / human LEDGF/p75 complex
Assay: blockers of LEDGF/p75-dependent integrase activity – biochemical, TR-FRET, dose response (AID 1053172)
Conditions: TR-FRET integrase-LEDGF/p75 DNA integration
The source made the active and inactive calls. How the calls were made is not given here.
// allowed return values: true (1) for active, false (0) for inactive

mol-smiles	qualitative-label
Cc1cc(-c2csc(N)n2)c(C)n1Cc1ccco1	false (0)
Nc1nc(-c2ccco2)c(-c2ccco2)s1	false (0)
O=C(N/N=C/c1ccc(O)cc1O)C(=O)N/N=C/c1ccc(O)cc1O	true (1)
C=C(C)C(=O)Oc1ccc(N=Nc2ccc(C)cc2)ccc1=O	true (1)

stdin: Test call for this compound, please: `O=C(CCc1ccc(S(=O)(=O)N2CCOCC2)cc1)N/N=C/c1ccc(O)c(O)c1O`
stdout: false (0)

stdin: Test call for this compound, please: `C[C@@H]1O[C@@H](Oc2c(-c3ccc(O)c(O)c3)oc3cc(O)cc(O)c3c2=O)[C@H](O)[C@H](O)[C@H]1O`
stdout: true (1)

stdin: Test call for this compound, please: `COc1cccc(-n2c(SCc3cc(=O)oc4cc(O)c(O)cc34)nc3ccccc3c2=O)c1`
stdout: true (1)

====

Target: HIV-1 integrase / human LEDGF/p75 complex
Assay: blockers of LEDGF/p75-dependent integrase activity – biochemical, TR-FRET, dose response (AID 1053172)
Details: TR-FRET integrase-LEDGF/p75 DNA integration
Active and inactive are the calls of the source. No rule for the calls is given here.
// allowed return values: true for active, false for inactive

Below, 5 molecules whose answers are already recorded.
molecule	qualitative-label
Oc1ccc(NCc2ccccc2OCc2ccccc2)cc1	false
O=S(=O)(O)c1cc(Cl)cc(N=Nc2ccc(O)cc2O)c1O	true
Cc1cc(/C=C2\C(=O)NC(=O)N(c3ccccc3F)C2=O)c(C)n1-c1cc(C(=O)O)cc(C(=O)O)c1	true
CC(C)(CS(=O)(=O)[O-])NC(=O)CC[N+](C)(C)CCO	true
Cc1ccc(N=C2NC(=O)/C(=C/C=C/c3ccco3)S2)cc1	true

Turning to the following molecule.
stdin: Test call for this molecule, please: O=c1cc(-c2ccc(O)c(O)c2)oc2c(C3O[C@H](CO)[C@@H](O)[C@H](O)[C@H]3O)c(O)cc(O)c12 (stereo partly drawn)
stdout: true

====

Biological target: HIV-1 integrase / human LEDGF/p75 complex
Assay: blockers of LEDGF/p75-dependent integrase activity – biochemical, TR-FRET, dose response (AID 1053172)
Details: TR-FRET integrase-LEDGF/p75 DNA integration
Active and inactive are the calls of the source. No rule for the calls is given here.
observable: IC50

As a guide, the following entries are already answered.
compound	target-system	observable	result
N#C/C(=C\c1ccc(O)c(O)c1)C(=O)Nc1cccc2ncccc12	HIV-1 integrase / human LEDGF/p75 complex	IC50	1.07 µM
CC(=O)Nc1ccc2c(COC(=O)CC3Sc4ccccc4NC3=O)cc(=O)oc2c1 (stereo not given)	HIV-1 integrase / human LEDGF/p75 complex	IC50	> 12.2 µM (inactive)
COC(=O)c1cc(O)cc(OC)c1Oc1cc(C)cc(O)c1C(=O)O	HIV-1 integrase / human LEDGF/p75 complex	IC50	2.59 µM
COP(=O)(OC)c1ccc(NCc2cc(O)ccc2O)cc1	HIV-1 integrase / human LEDGF/p75 complex	IC50	inactive

// next entry
stdin: Find the recorded IC50 belonging to `Cc1cc(C(=O)N/N=C/c2ccc(O)c([N+](=O)[O-])c2)c(C)n1-c1ccc(F)cc1` and report it.
stdout: inactive

====

Molecular target: HIV-1 integrase / human LEDGF/p75 complex
Experiment: blockers of LEDGF/p75-dependent integrase activity – biochemical, TR-FRET, dose response (AID 1053172)
Conditions: TR-FRET integrase-LEDGF/p75 DNA integration
Activity calls are given as the source filed them. How the calls were made is not given here.
// allowed return values: T = active, F = inactive

mol-smiles	qualitative-label
Nc1ccc2c(c1)C/C(=C/c1ccco1)C2=O	F
CC1=NN(c2cccc(C(=O)O)c2)C(=O)/C1=C\C=C\c1ccco1	T

Turning to the following compound.
stdin: Test call for this compound, please: `COc1ccc(/C=C/C(=O)N2CCCc3ccccc32)cc1`
stdout: F

====

Target: HIV-1 integrase / human LEDGF/p75 complex
Test: blockers of LEDGF/p75-dependent integrase activity – biochemical, TR-FRET, dose response (AID 1053172)
Conditions: TR-FRET integrase-LEDGF/p75 DNA integration
Activity calls are given as the source filed them. How the calls were made is not given here.
observable: IC50

As a guide, the following entries are already answered.
compound	observable	result
O=C(CCN1CCN(c2ccccc2)CC1)N/N=C/c1ccc(O)c(O)c1O	IC50	1.02 µM
Cc1ccc(-c2csc(NS(=O)(=O)c3cccc(F)c3)n2)o1	IC50	inactive
O=C(O)c1ccc(-n2cccc2/C=C2/NC(=O)N(c3ccccc3)C2=O)cc1	IC50	2.85 µM
NC1=NC(=O)/C(=C\c2ccco2)S1	IC50	3.99 µM

The following compounds each have a reported value; give each one's IC50.
1. Cc1csc(NC(=O)CSc2sc3c(O)cc(=O)[nH]c3c2C#N)n1
2. N#Cc1c(SCC(=O)Nc2nccs2)sc2c(O)cc(=O)[nH]c12
3. O=C(O)CC(C(=O)O)N1C(=O)/C(=C/C=C/c2ccco2)SC1=S (stereo not given)
4. O=C1C=C(O)c2[nH]c(=O)ccc2C1=O

stdout:
9.73 µM
8.63 µM
0.377 µM
3.8 µM

The following compounds each have a reported value; give each one's IC50.
1. O=C(N/N=C/c1ccc(F)cc1)c1cc(-c2ccco2)nc2ccccc12
2. CN(C)[C@@H]1C(=O)C(C(N)=O)=C(O)[C@@]2(O)C(=O)C3=C(O)c4c(O)cccc4[C@@](C)(O)C3[C@H](O)C12 (stereo not given in full)

stdout:
1: 8.59 µM; 2: inactive

====

Biological target: HIV-1 integrase / human LEDGF/p75 complex
Assay: blockers of LEDGF/p75-dependent integrase activity – biochemical, TR-FRET, dose response (AID 1053172)
Settings: TR-FRET integrase-LEDGF/p75 DNA integration
Active and inactive are the calls of the source. No rule for the calls is given here.
// allowed return values: active, inactive

Below, 2 molecules whose answers are already recorded.
mol-smiles	target-system	qualitative-label
C/C(=N\NC(=O)c1cc(O)ccc1O)c1cccc(NC(=O)c2ccc(Cl)cc2)c1	HIV-1 integrase / human LEDGF/p75 complex	inactive
Cc1ccc(N=C2NC(=O)/C(=C/C=C/c3ccco3)S2)cc1C	HIV-1 integrase / human LEDGF/p75 complex	active

stdin: Test call for this molecule, please: `O=C(COC(=O)c1c2c(nc3ccccc13)/C(=C\c1ccco1)CC2)NC1CCCC1`
stdout: active

stdin: Test call for this molecule, please: `O=C(O)c1cccc(-n2cccc2/C=C2/NC(=O)N(c3ccc(Cl)cc3)C2=O)c1`
stdout: active

stdin: Test call for this molecule, please: `O=C(N/N=C/c1cccc(F)c1)c1cc(-c2ccco2)nc2ccccc12`
stdout: active

stdin: Test call for this molecule, please: `CC1(C)OC(C)(C)/C(=C/Nc2ccc(O)cc2)C1=O`
stdout: inactive

stdin: Test call for this molecule, please: `O=S(=O)(O)c1ccc(O)c2cc(Nc3ccccc3)ccc12`
stdout: active

stdin: Test call for this molecule, please: `O=C(O)COc1ccc2c(c1)O/C(=C\c1ccco1)C2=O`
stdout: active

stdin: Test call for this molecule, please: `O=[N+]([O-])c1ccccc1NC(=S)N/N=C/c1ccc(O)c(O)c1`
stdout: active

stdin: Test call for this molecule, please: `COc1ccc(N=C2NC(=O)/C(=C\C=C\c3ccco3)S2)cc1`
stdout: active

stdin: Test call for this molecule, please: `Oc1ccc(/C=N/N=C(c2ccccc2)c2ccccc2)c(O)c1O`
stdout: active
